Target: T1, Rhesus-ICAM1 (rhesus, UniProt Q5NKV6 28-480, limits assumed)
T1 sequence (looked up): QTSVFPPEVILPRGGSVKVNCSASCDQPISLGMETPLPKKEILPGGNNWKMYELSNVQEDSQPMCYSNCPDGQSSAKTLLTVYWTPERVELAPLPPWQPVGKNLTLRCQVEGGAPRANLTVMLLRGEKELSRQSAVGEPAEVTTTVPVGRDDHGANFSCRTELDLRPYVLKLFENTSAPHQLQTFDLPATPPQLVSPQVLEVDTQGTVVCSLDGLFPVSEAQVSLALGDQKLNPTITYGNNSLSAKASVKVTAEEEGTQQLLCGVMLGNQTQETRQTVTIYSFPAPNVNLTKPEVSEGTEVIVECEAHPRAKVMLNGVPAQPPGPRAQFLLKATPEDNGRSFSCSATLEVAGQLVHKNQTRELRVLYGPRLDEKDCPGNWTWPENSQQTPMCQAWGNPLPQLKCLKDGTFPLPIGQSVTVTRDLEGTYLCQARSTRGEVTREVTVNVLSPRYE
Assay: ELISA: plate coated with 1 ug/ml recombinant rhesus ICAM1 ECD, serially diluted antibody, OD450
observation-type: EC50 (read off the curve)

binder	observation-type	test-result
15D10 (antibody, human IgG1, kappa, V domains shown, Rabbit-human chimeric anti-ICAM1: rabbit VH and VL on human IgG1 and kappa constant regions) VH: QSVEESGGRLVTPGTPLTLTCTASGFSLNNYYMSWVRQAPGKGLEWIGIISDSDNTYYASWAKGRFTISKTSTTVDLKITSPTTEDTATYFCARDWSLDSSSGYYYYDMDLWGPGTLVTVSA VL: AYDMTQTPASMEVAVGGTVTIKCQASQNIHSWLAWFQQKPGQPPKRLIYKASTLASGVPSRFKGSGSGTQFTLTISGVQSDDAATYYCQQGYSRSDGEHVFGGGTEVVVKR	EC50 (read off the curve)	~0.04 nM
11F2 (antibody, human IgG1, kappa, V domains shown, Rabbit-human chimeric anti-ICAM1: rabbit VH and VL on human IgG1 and kappa constant regions) VH: QSVEESGGGLVKPGGTLTLTCTVSGFSLSSHAMGWVRQAPGKGLEYIGIIGSSDRTYYASWAKGRFTISKTSTTVDLKITSPTTEDTATYFCVRDPYDSYDDGYRLWGPGTLVTVSS VL: AYDMTQTPASVEVAVGGTVTIKCQASQSIYRYLSWYQKKPGQRPKFLIYDASKLASGVPSRFEGSGSGTEFTLTISGAQSDDAATYYCQQAYSSGSIDNAFGGGTEVVVKR	EC50 (read off the curve)	~0.04 nM
2E3 (antibody, human IgG1, kappa, V domains shown, Rabbit-human chimeric anti-ICAM1: rabbit VH and VL on human IgG1 and kappa constant regions) VH: QSVEESGGGLVKPGGTLTLTCTVSGFSLSSYAMGWVRQAPGKGLEYIGIIGSSGSTYYASWAKGRFTISKTSTTVDLKITSPTTEDTATYFCVRDPYDSFGDGYRLWGPGTLVTVSS VL: AYDMTQTPASVEVAVGGTVTIKCQASENIYRYLLWYQQKLGQRPSLLIYDASKLASGVPSRFKGSGSGTEFTLTISGVQSDDAATYYCQQAYSSSNVDNAFGGGTEVVVKR	EC50 (read off the curve)	~0.04 nM
11G7 (antibody, human IgG1, kappa, V domains shown, Rabbit-human chimeric anti-ICAM1: rabbit VH and VL on human IgG1 and kappa constant regions) VH: QSVEESGGRLVTPGTPLTLTCTVSGFSLSDYYMSWVRQAPGKGLEWIGIISDSGSTYYASWAKGRFTISKTSSTTVDLKITSPTTEDTATYFCARDWSYDSSSGYYYYDMDLWGPGTLVTVSA VL: AYDMTQTPASVEVAVGGTVTIKCQASQSINSWLSWFHQKPGQPPKRLIYKASTLASGVSSRFKGSGSGTQFTLTISGVESADAATYYCQQGYSRSDGEHVFGGGTEVVVKR	EC50 (read off the curve)	~0.04 nM

# ---- query binder ----
Q: Query: EC50 (read off the curve); subject: 4H5 (antibody, human IgG1, kappa, V domains shown, Rabbit-human chimeric anti-ICAM1: rabbit VH and VL on human IgG1 and kappa constant regions) VH: QSVEESGGRLVTPGTPLTLTCTASGFSLSNYYMSWVRQAPGKGLEWIGIISDSGTTYYASWAKGRFTISKTSTTVDLKITSPTTEDTATYFCARDWSYDSSSGYYYYDMDLWGPGTLVTVSA VL: GYDMTQTPASVEVAVGGTVTIKCQASQSINSWLVWFQHKPGQPPKRLIYKASTLASGVSSRFKGSGSGTHFTLTISGVESADAATYYCQQGYSRSDGEHVFGGGTEVVVKR
Result: ~0.04 nM
